Kindly supply the reported pEC50 values for the records listed here.
measured_on: recombinant human S1P1 receptor (Homo sapiens)
assay_notes: GTPγS assay to determine EC50 values
measurement_conditions: 35S-GTPγS binding, membrane preparations of CHO cells expressing recombinant human S1P1 receptor
Protocol: The pH is 7.4. Test compounds are dissolved and diluted in 100% DMSO and pre-incubated at room temperature for 30 min in 150 μl of the above assay buffer, in the absence of ^35S-GTPγS. […] Membrane-bound ^35S-GTPγS is measured with a TopCount from Packard Biosciences. Specific binding is determined by subtracting non-specific binding from maximal binding. […] The EC50 values were determined according to the method described above.
One number for each entry, as −log10 of the molar value.

compound | test_result
Cc1cc(CCC(=O)c2sc(C)c3c2C[C@@H]2[C@H]3C2(C)C)ccc1OCCN(C)C [Example 37] | 7.24

Please give pEC50 for each item listed below.
1. COc1cc(CCC(=O)c2sc(C)c3c2CC2C3C2(C)C)cc(Cl)c1OCC(O)CN1CCNCC1 (centres unmarked) [Example 175]
2. Cc1cc(CCC(=O)c2sc(C)c3c2C[C@@H]2[C@H]3C2(C)C)cc(C)c1OCC(O)CN (some centres unmarked) [Example 99]
3. COCC(O)COc1c(C)cc(CCC(=O)c2sc(C)c3c2C[C@@H]2[C@H]3C2(C)C)cc1C (some centres unmarked) [Example 233]
4. Cc1sc(C(=O)CCc2ccc(CC(O)CO)cc2)c2c1[C@H]1[C@@H](C2)C1(C)C (some centres unmarked) [Example 1]
5. CCc1cc(CCC(=O)c2sc(C)c3c2CC2C3C2(C)C)cc(C)c1OCC(O)CNC(=O)CO (centres unmarked) [Example 244]
6. Cc1cc(CCC(=O)c2sc(C)c3c2CC2C3C2(C)C)ccc1OCC(O)CNCCC(=O)O (centres unmarked) [Example 48]
7. Cc1sc(C(=O)CCc2ccc(CCCN)cc2)c2c1[C@H]1[C@@H](C2)C1(C)C [Example 2]

Outgoing:
7.55
8.96
8.64
7.92
8.96
8.70
8.52

---

measured_on: recombinant human S1P1 receptor (Homo sapiens, UniProt P21453)
Sequence (P21453 whole entry): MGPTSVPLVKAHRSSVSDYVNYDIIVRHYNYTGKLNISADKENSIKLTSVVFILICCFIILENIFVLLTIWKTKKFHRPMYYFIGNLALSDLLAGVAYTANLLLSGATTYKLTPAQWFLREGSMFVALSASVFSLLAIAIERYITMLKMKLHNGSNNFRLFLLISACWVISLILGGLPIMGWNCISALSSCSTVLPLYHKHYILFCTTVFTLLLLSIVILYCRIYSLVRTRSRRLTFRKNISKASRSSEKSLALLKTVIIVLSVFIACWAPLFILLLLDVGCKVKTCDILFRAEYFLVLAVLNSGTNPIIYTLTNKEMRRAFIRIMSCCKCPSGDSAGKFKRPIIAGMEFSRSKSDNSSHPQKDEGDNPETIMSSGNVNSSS
assay_notes: GTPγS assay to determine EC50 values
measurement_conditions: 35S-GTPγS binding, membrane preparations of CHO cells expressing recombinant human S1P1 receptor
Kindly supply the reported EC50 values for the records listed here.
Numbers only, in nM.

Please give EC50 for each item listed below.
1. Cc1sc(C(=O)CCc2ccc(CCC(N)=O)cc2)c2c1[C@H]1[C@@H](C2)C1(C)C [Example 13]
2. Cc1cc(CCC(=O)c2sc(C)c3c2C[C@@H]2[C@H]3C2(C)C)cc(C)c1OCC(O)CNC(=O)CN (stereo partly shown) [Example 234]
3. Cc1sc(C(=O)CCc2ccc(C(=O)NCCN)cc2)c2c1[C@H]1[C@@H](C2)C1(C)C [Example 31]

Outgoing:
[13, 2.7, 6]

---

measured_on: recombinant human S1P1 receptor (Homo sapiens, UniProt P21453)
assay_notes: GTPγS assay to determine EC50 values
measurement_conditions: 35S-GTPγS binding, membrane preparations of CHO cells expressing recombinant human S1P1 receptor
Kindly supply the reported pEC50 values for the records listed here.
Numbers only, as −log10 of the molar value.

compound | measure | test_result
Cc1cc(CCC(=O)c2sc(C)c3c2C[C@@H]2[C@H]3C2(C)C)cc(C)c1CC(O)CO (stereo partly shown) | pEC50 | 9.10
Cc1sc(C(=O)CCc2ccc(OCC(O)CNCCC(=O)O)c(Cl)c2)c2c1C1C(C2)C1(C)C (stereo not shown) | pEC50 | 8.85
COc1cc(CCC(=O)c2sc(C)c3c2CC2C3C2(C)C)cc(Cl)c1OCCN1CCC(C(=O)O)C1 (stereo not shown) | pEC50 | 8.70

Next compound, please.
Incoming: // pEC50 lookup, key: Cc1cc(CCC(=O)c2sc(C)c3c2C[C@@H]2[C@H]3C2(C)C)cc(C)c1CCC(=O)NC(CO)CO
Outgoing: 8.54
